# target-system: monoclonal antibody MV-001
# assay-summary: ELISA, peptide-BSA coated, MV-001
# reported-conditions: scale: code
quantity-measured: Binding Capacity
# print the numeric value only

AEFMHSVC [p4739] :: 2
QVMRHHAC [p4711] :: 2
EFLRHTLC [p4722] :: 3

Consider the additional binder presented here.
-- ask Can you look up the measured Binding Capacity of SQSYFKHC [p4755] for me?
-- reply 3
